- System: MCF7
- procedure.text: Cytotoxicity against human MCF7 cells
- Assay type: functional
- stated.conditions: Homo sapiens, MCF7; read-out: ED50 (the source's name)
Would you kindly list log10 EC50 for each of these compounds?
Units before log transform: nM; reported quantity: EC50; transform: log10.

Looking up CCCCCCCCCCC[C@@H]1C[C@H](O)C[C@@]2(CCC3(C=CC(=O)C=C3)O2)O1 (relative stereo) [ACULEATIN E] , I see its log10 EC50 listed as 2.70

Looking up `CCCCCCCCCCCCC[C@@H]1C[C@@H](OC(=O)COCC(=O)O)C[C@]2(CCC3(C=CC(=O)C=C3)O2)O1` , I see its log10 EC50 listed as 3.11

Looking up `CCCCCCCCCCCCC[C@@H]1CC(=O)C[C@]2(CCC3(C=CC(=O)C=C3)O2)O1` , I see its log10 EC50 listed as 3.88

Looking up `CCCCCCCCCCCCC[C@@H]1C[C@@H](OC(C)=O)C[C@]2(CCC3(C=CC(=O)C=C3)O2)O1` , I see its log10 EC50 listed as 3.18

Looking up `CCCCCCCCCCCCC[C@@H]1C[C@@H](OC(C)=O)C[C@@]2(CCC3(C=CC(=O)C=C3)O2)O1` , I see its log10 EC50 listed as 3.54

Looking up CCCCCCCCCCCCC[C@@H]1C[C@@H](O)C[C@@]2(CCC3(C=CC(=O)C=C3)O2)O1 [ACULEATINS B] , I see its log10 EC50 listed as 3.28

Looking up CCCCCCCCCCCCC[C@@H]1C[C@@H](O)C[C@]2(CCC3(C=CC(=O)C=C3)O2)O1 [ACULEATIN A] , I see its log10 EC50 listed as 2.30

Looking up CCCCCCCCCCCCC[C@@H]1C[C@@H](O)C[C@@]2(CC[C@]3(C=CC(=O)C[C@@H]3O)O2)O1 (relative stereo) [ACULEATOL E] , I see its log10 EC50 listed as 3.59

====

- Test system: MCF7
- procedure.text: Cytotoxicity against human MCF7 cells
- Format: functional
- stated.conditions: Homo sapiens, MCF7; read-out: ED50 (the source's name)
readout.label: EC50 (µM)
Use µM as the unit, but write only the number.

Looking up `CCCCCCCCCCCCC[C@@H]1C[C@@H](OC(=O)c2ccc(Br)cc2)C[C@]2(CCC3(C=CC(=O)C=C3)O2)O1` , I see its EC50 listed as 0.7

Looking up CCCCCCCCCCCCCCC[C@@H](O)CC1(OC)CCC2(C=CC(=O)C=C2)O1 (stereo in doubt; 7) , I see its EC50 listed as 0.7

Looking up `CCCCCCCCCCCCC[C@@H]1C[C@@H](OC(=O)c2c(Cl)c(Cl)c(Cl)c(Cl)c2C(=O)O)C[C@]2(CCC3(C=CC(=O)C=C3)O2)O1` , I see its EC50 listed as 4.8

Looking up `CCCCCCCCCCCCC[C@@H]1C[C@@H](OC(=O)c2c(Br)c(Br)c(Br)c(Br)c2C(=O)O)C[C@]2(CCC3(C=CC(=O)C=C3)O2)O1` , I see its EC50 listed as 4.7

Looking up `CCCCCCCCCCCCC[C@@H]1C[C@@H](OC(=O)[C@@]23CC[C@@](C)(C(=O)O2)C3(C)C)C[C@]2(CCC3(C=CC(=O)C=C3)O2)O1` , I see its EC50 listed as 3.2

Looking up `CCCCCCCCCCCCC[C@@H]1C[C@@H](OC(=O)c2cc(F)c(Cl)nc2Cl)C[C@]2(CCC3(C=CC(=O)C=C3)O2)O1` , I see its EC50 listed as 14.6

Looking up CCCCCCCCCCC[C@@H]1C[C@@H](O)C[C@]2(CCC3(C=CC(=O)C=C3)O2)O1 (relative stereo) [ACULEATIN F] , I see its EC50 listed as 0.5

Provenance of the data: ChEMBL document CHEMBL1144816
